# target_under_test: T1, Recombinant human Dkk-1 (R&D Systems cat no. 1096-DK/CF), 10xHis tag at the C terminal (human, UniProt O94907 32-266)
# T1 construct: the actual N-terminus of the purified protein is marked in bold italic after residue 30, but the mark is an image lost in the text; also called rhuDkk-1; hDkk-1
# T1 sequence: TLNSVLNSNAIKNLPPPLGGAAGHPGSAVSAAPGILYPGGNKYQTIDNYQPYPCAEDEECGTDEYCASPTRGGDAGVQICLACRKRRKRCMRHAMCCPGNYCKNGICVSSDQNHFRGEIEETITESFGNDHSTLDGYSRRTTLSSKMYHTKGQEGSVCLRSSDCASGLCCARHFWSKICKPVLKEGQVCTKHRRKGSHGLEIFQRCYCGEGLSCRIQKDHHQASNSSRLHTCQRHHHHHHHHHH
# assay_info: theoretical: koff / estimated kon 1e6 1/Ms (SPR screening 37C)
Catalogue of Kd values
quantity: Kd (nM)

>>> measured("SL3.4C7 (Fab, V domains shown, tested as Fab (E. coli lysate, screening mode); human kappa CL and IgG2 CH1 not included here) VH: EVQLVESGGGLVQPGGSLRLSCAASGFTFSSYAISWVRQAPGKGLEWVASVSGGGRTYYPDSVKGRFTISRDNAKNSLYLQMNSLRAEDTAVYYCATSLENYAFDYWGQGTTVTVSS VL: EIVLTQSPATLSLSPGERATLSCRASESVDDFGISFMNWYQQKPGQAPRLLIYAASKQGSGIPARFSGSGSGTDFTLTISSLEPEDFAVYYCQHSKEVPPTFGGGTKVEIK")
7.3
>>> measured("SL3.1F11 (Fab, V domains shown, tested as Fab (E. coli lysate, screening mode); human kappa CL and IgG2 CH1 not included here) VH: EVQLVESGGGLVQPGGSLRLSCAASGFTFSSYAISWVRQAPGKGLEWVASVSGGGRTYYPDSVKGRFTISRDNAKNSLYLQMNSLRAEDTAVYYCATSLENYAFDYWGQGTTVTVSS VL: EIVLTQSPATLSLSPGERATLSCRASESVDDFGISFMNWYQQKPGQAPRLLIYAASKQGSGIPARFSGSGSGTDFTLTISSLEPEDFAVYYCQQSWEVPPTFGGGTKVEIK")
5.4
>>> measured("SL3.3H8 (Fab, V domains shown, tested as Fab (E. coli lysate, screening mode); human kappa CL and IgG2 CH1 not included here) VH: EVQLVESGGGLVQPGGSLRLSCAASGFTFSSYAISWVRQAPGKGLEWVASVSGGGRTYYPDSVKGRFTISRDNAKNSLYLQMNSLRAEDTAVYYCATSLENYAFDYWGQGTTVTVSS VL: EIVLTQSPATLSLSPGERATLSCRASESVDDFGISFMNWYQQKPGQAPRLLIYAASKQGSGIPARFSGSGSGTDFTLTISSLEPEDFAVYYCQQSKEVPGTFGGGTKVEIK")
22.9
